Below are IC50 measurements against Prothrombin (Homo sapiens, UniProt P00734) drawn from the literature.
Mark 1 (yes) only when IC50 stays strictly below 1 µM. Values equal to the cut-off are 0 (no).

Nc1nccc2cc(CNC(=O)[C@@H]3CCCN3C(=O)[C@H](NC3CCCCC3)C3CCOCC3)ccc12	1 (yes)

Problem: API: query returns whether the compound falls strictly under 1 µM in IC50. Query: `COc1ccc2ccc(S(=O)(=O)N[C@@H](CCCNc3cccnn3)C(=O)N3CCC(C)CC3)cc2c1`
Solution: 0 (no)

Problem: Also, N=C(N)c1ccc(CNC(=O)CC2OCCN(N(Cc3ccccc3)Cc3ccccc3)C2=O)cc1 (stereo not drawn) please.
Solution: 0 (no)

Problem: Also, N=C(N)c1ccc2cc(CC(C(=O)O)c3ccc(O[C@H]4CCNC4)cc3)oc2c1 (stereo partly drawn) please.
Solution: 0 (no)

Problem: Also, CCN(C(=O)C1=CCCC1C(=O)NCc1ccc(C(=N)N)cc1)c1ccccc1 (stereo not drawn) please.
Solution: 1 (yes)

Problem: Also, `COc1cccc(C(=O)O)c1OCCc1cc(-c2ccc3c(c2)[C@H](N)CO3)cc(C(C)C)c1` please.
Solution: 0 (no)

Problem: Also, `CCON(C(=O)C1=CCC[C@H]1C(=O)NCc1ccc(C(=N)N)cc1)C1CCCCC1` please.
Solution: 1 (yes)

Problem: Also, `CC(C)C[C@@H](NC1CCC(F)(F)CC1)C(=O)N1CCC[C@H]1C(=O)NCc1ccc2c(N)nccc2c1` please.
Solution: 1 (yes)

Problem: Also, `CCN(CC)C(=O)c1cccc(-c2ccc3c(c2)[C@@H]2[C@@H](CCCCC(=N)N)C(=O)N(C(=O)OC)[C@H]2C3)c1` please.
Solution: 1 (yes)

Problem: Also, `Cc1cccc(S(=O)(=O)Oc2cccc(OCCc3ccc(CN)cc3)c2)c1` please.
Solution: 0 (no)

Problem: Also, N=C(N)c1cccc(C2Oc3ccccc3N(CCCCCN3CCCCC3)C2=O)c1 (stereo not drawn) please.
Solution: 0 (no)

Problem: Also, `N=C(N)c1cccc(C(=O)N2Cc3ccccc3C[C@@H]2C(=O)Nc2ccc(-c3ccccc3S(N)(=O)=O)cc2)c1` please.
Solution: 0 (no)

Problem: Also, CC(=O)Nc1c(CCc2ccccc2)ccn(CC(=O)N[C@H]2CCCN(C(=N)N)C2O)c1=O (stereo partly drawn) please.
Solution: 1 (yes)

Problem: Also, `N=C(N)c1ccc(CNC(=O)C[C@H]2OCCN(NCCCc3ccccc3)C2=O)cc1` please.
Solution: 0 (no)

Problem: Also, `N=C(N)c1ccc(CNC(=O)C[C@@H]2OCCN(NS(=O)(=O)Cc3ccccc3)C2=O)cc1` please.
Solution: 0 (no)

Problem: Also, `N=C(N)NCCC[C@@H](NC(=O)CN1CCC[C@H](NS(=O)(=O)Cc2ccccc2)C1=O)C(=O)c1nccs1` please.
Solution: 1 (yes)

Problem: Also, `NCCCC[C@H](NC(=O)[C@@H]1CCCN1C(=O)CCCc1ccccc1)C(=O)c1nccs1` please.
Solution: 0 (no)

---

Below are IC50 measurements against Prothrombin (Homo sapiens, UniProt P00734) drawn from the literature.
Supply the numeric figure in µM, leaving out any unit text.

Example results:
N=C(N)c1ccc(CNC(=O)[C@H](Cc2ccc(O)cc2)NC(=O)[C@@H](CC2CCCCC2)NCC(=O)O)cc1	3.9
N=C(N)c1ccc(CNC(=O)C2(NC(=O)CNCC(=O)O)Cc3ccccc3C2)cc1	100

Problem: Name the recorded IC50 for N=C(N)NCCCC(NC(=O)CN1CCN(S(=O)(=O)c2ccc([N+](=O)[O-])cc2)CC1=O)C(=O)c1nccs1 (stereo not given) .
Solution: 3
